# System: HaCat
# measurement.description: Cytotoxic Profiling of Annotated Libraries Using Quantitative High-Throughput Screening (AID 1296008); note: nearly all actives have a fitted effect of over 60% in size
# measurement.conditions: Five cell lines viability, CellTiter-Glo ATP luminescence, 48-72 h
# Description: Cell-based phenotypic screening is a commonly used approach to discover biological pathways, novel drug targets, chemical probes and high-quality hit-to-lead molecules. […] A pintool (Kalypsys) was used to transfer 23 nL of compound solution to the 1536-well assay plates. […] Plates were left at room temperature for 10 min before imaging the ATP-coupled luminescence using a ViewLux microplate imager (PerkinElmer, Waltham, MA).
Inconclusive results are not listed. Active and inactive are the calls of the source. Calls come from the whole dose curve; as a rule, active = well fitted inhibition curve with a large enough effect; inconclusive = small, poorly fitted or top-dose-only effect; inactive = flat fitted curve, though single readings scatter.
Write down the outcome that applies. Available outcomes: Y (active), N (inactive)

Hi, sorry to bother you, what did the test record for NC(=O)OCCCc1ccccc1 ? N

Hi, sorry to bother you, what did the test record for C[C@]12CC[C@H]3[C@@H](CCC4=CC(=O)CC[C@@]43C)[C@@H]1CC[C@@H]2C(=O)O ? N

Hi, sorry to bother you, what did the test record for CCC(=O)O[C@H]1CC[C@H]2[C@@H]3CCC4=CC(=O)CC[C@]4(C)[C@H]3CC[C@]12C ? N

Hi, sorry to bother you, what did the test record for Oc1ccc2[nH]cc(CCCCN3CC=C(c4ccccc4)CC3)c2c1 ? N

Hi, sorry to bother you, what did the test record for C[C@@H]1C[C@@H]([C@H](O)CC2CC(=O)NC(=O)C2)C(=O)[C@@H](C)C1 ? Y

###

# measurement.description: Cytotoxicity counterscreen for inhibitors of SARS-CoV-2 cell entry (AID 1645845); note: nearly all actives have a fitted effect of over 50% in size
# measurement.conditions: cell viability (SARS-CoV-2 entry assay cells); series mostly up to 57.1 µM
Records with an inconclusive call do not appear. Calls of active or inactive are those of the source. Calls follow the shape of the full dose curve.
observation.type: outcome

Example results:
1) Cc1cc(O)c(C(C)C)cc1Cl    inactive
2) CCN(CC)CCOCCOC(=O)C1(c2ccccc2)CCCC1    inactive
3) CNC(=O)c1c(I)c(NC(=O)CCCCC(=O)Nc2c(I)c(C(=O)O)c(I)c(C(=O)NC)c2I)c(I)c(C(=O)O)c1I    inactive
4) O=C1OC2(c3ccccc31)c1cc(I)c(O)c(I)c1Oc1c2cc(I)c(O)c1I    inactive
5) O=C(O)CCNC(=O)c1ccccc1    inactive

The compound identified as CCN(CC)C(=O)N1CCN(C)CC1 registered its outcome at inactive

The compound identified as CC(Cc1ccccc1)NCc1ccccc1Cl (stereo not drawn) registered its outcome at inactive

The compound identified as Cc1cccc(CN2CCN(C(c3ccccc3)c3ccc(Cl)cc3)CC2)c1 (stereo not drawn) registered its outcome at inactive

###

# Tested on: Es-2
# measurement.description: Primary qHTS to identify gynecologic anti-cancer compounds using libraries of approved drugs and bioactive compounds (AID 1345084); note: nearly all actives have a fitted effect of over 55% in size
# measurement.conditions: Gynecologic cancer cell panel viability, ATPlite luminescence, 48 h; series mostly up to 57.5 µM
Inconclusive results are not listed. Active and inactive are the calls of the source. The call rests on the fitted dose curve; in most records, active means well fitted cell-killing curve with a large enough effect; inconclusive means small, poorly fitted or top-dose-only effect, or effect the other way; inactive means flat fitted curve, though single readings scatter.
observation.type: outcome

1) COc1ccc(C(=O)N2CCCC2=O)cc1    inactive
2) Oc1c(Br)cc(Br)cc1Br    inactive
3) CCOC(=O)c1ncn2c1CN(C)C(=O)c1c(I)cccc1-2    inactive
4) CC(Cc1ccc2c(c1)OCO2)NO (configuration not stated)    inactive
5) C[C@]12Cc3nonc3C[C@@H]1CC[C@@H]1[C@@H]2CC[C@@]2(C)[C@H]1CC[C@]2(C)O    inactive
6) CN1C[C@@H](NS(=O)(=O)N(C)C)C[C@@H]2c3cccc4c3c(cn4C)C[C@H]21    inactive

The compound identified as CCOC(=O)C1(c2ccccc2)CCN(CCc2ccc(N)cc2)CC1 registered its outcome at inactive

The compound identified as CCCOC(=O)Cc1ccc(OCC(=O)N(CC)CC)c(OC)c1 registered its outcome at inactive
